# Experiment Notes: in vitro
Measurement Label: fraction unbound at 10 min, 10 µM

Q: # get_value(readout='fraction unbound at 10 min, 10 µM', item= Clc1ccccc1C(c1ccccc1)(c1ccccc1)n1ccnc1 [Clotrimazole] )
Ans: < 0.01

----------
# Experiment Notes: Pharmacokinetics of antibiotics in silkworm hemolymph after injection (HPLC)
# Condition Notes: silkworm, injection into hemolymph, two-compartment model; dose per compound 10-50 mg/kg
*1 amine or outer side, *2 acyl side, *3 side chain or, on linkers, in order; H or OH if unused. Where a SMILES comes first, the peptide text is derived from it. Bridges are numbered along the chain shown (N, C = ends). [ ]: non-standard residue; d: D form. The star is where a group is joined. hTyr(3S-OH,4S-OH,3'-OSO3H) = N[C@H](C(=O)O)[C@H](O)[C@@H](O)c1ccc(O)c(OS(=O)(=O)O)c1; Orn(4R-OH,5R-OH) = O=C([C@H](C[C@@H](O)[C@@H](O)N[*:3])N[*:1])[*:2]; Pro(3S-OH,4S-Me) = C[C@H]1CN[C@H](C(=O)O)[C@H]1O; X1 = CCCCCOc1ccc(-c2cc(-c3ccc(C(=O)*)cc3)no2)cc1; Gln(3R-OH) = NC(=O)C[C@@H](O)[C@H](N)C(=O)O; Hyp = O=C(O)[C@@H]1C[C@@H](O)CN1
Measurement Label: Cltot (total body clearance) (mL/g/h)
Write the number in mL/g/h without appending the unit.

Here is how some molecules turned out for Cltot (total body clearance).
CN[C@H](CC(C)C)C(=O)N[C@H]1C(=O)N[C@@H](CC(N)=O)C(=O)N[C@H]2C(=O)N[C@H]3C(=O)N[C@H](C(=O)N[C@H](C(=O)O)c4cc(O)cc(O)c4-c4cc3ccc4O)[C@H](O)c3ccc(c(Cl)c3)Oc3cc2cc(c3O[C@@H]2O[C@H](CO)[C@@H](O)[C@H](O)[C@H]2O[C@H]2C[C@](C)(N)[C@H](O)[C@H](C)O2)Oc2ccc(cc2Cl)[C@H]1O :: 0.03
CCCCCOc1ccc(-c2cc(-c3ccc(C(=O)N[C@H]4C[C@@H](O)[C@@H](O)NC(=O)[C@@H]5[C@@H](O)[C@@H](C)CN5C(=O)[C@H]([C@H](O)CC(N)=O)NC(=O)[C@H]([C@H](O)[C@@H](O)c5ccc(O)c(OS(=O)(=O)O)c5)NC(=O)[C@@H]5C[C@@H](O)CN5C(=O)[C@H]([C@@H](C)O)NC4=O)cc3)no2)cc1 [Micafungin] (X1-[Orn(4R-OH,5R-OH)]T[Hyp][hTyr(3S-OH,4S-OH,3'-OSO3H)][Gln(3R-OH)][Pro(3S-OH,4S-Me)]; lactam 1-C) :: 0.03
CO[C@H]1/C=C/O[C@@]2(C)Oc3c(C)c(O)c4c(O)c(c(/C=N/N5CCN(C)CC5)c(O)c4c3C2=O)NC(=O)/C(C)=C\C=C\[C@H](C)[C@H](O)[C@@H](C)[C@@H](O)[C@@H](C)[C@H](OC(C)=O)[C@@H]1C :: 2.11

Now look at this one.
Q: Given "CN(C)[C@@H]1C(O)=C(C(N)=O)C(=O)[C@@]2(O)C(O)=C3C(=O)c4c(O)cccc4[C@@](C)(O)[C@H]3C[C@@H]12" , state its recorded Cltot (total body clearance).
Ans: 0.07
